- SYSTEM_NAME: T1, recombinant human sc-uPA (human, UniProt P00749 21-431)
- T1 construct: 411 amino acid single-chain zymogen expressed in HEK293; the 20-residue signal peptide is not present in the mature protein; also called human single-chain uPA; pro-uPA
- ASSAY_NOTES: SPR, mAb immobilised
Listed binders paired with reported pKd
Please keep in mind that pKd is minus log10 of the molar concentration; only the number is needed.

BINDER | pKd
rec0266-0000-0010-VL_N90I (antibody, mouse IgG1, name in Kabat numbering, V domains shown) VH: DVKLVESGGGLVKPGGSLKLSCVASGFTFSSYTMSWVRQTPEKRLEWVATISGGGSHIYYADSVKGRFTISRDNAKNTLYLQMSSLKSEDTAIYYCTRDGRDGSWFAYWGQGTLVTVSA VL: DIVMTQSPATLSVTPGDRVSLSCRTSQSIGDYLHWYQQKSHESPRLLIKYVSQSISGIPSRFSGSGSGSDFTLSINSVESEDVGVYYCQISHSFPLTFGSGTKLELKR | 9.21

Reported pKd ( rec0266-0000-0010-VL_N90P (antibody, mouse IgG1, name in Kabat numbering, V domains shown) VH: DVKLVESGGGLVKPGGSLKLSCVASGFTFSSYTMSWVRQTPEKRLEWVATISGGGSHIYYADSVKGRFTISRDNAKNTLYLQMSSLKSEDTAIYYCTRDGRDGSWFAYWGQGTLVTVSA VL: DIVMTQSPATLSVTPGDRVSLSCRTSQSIGDYLHWYQQKSHESPRLLIKYVSQSISGIPSRFSGSGSGSDFTLSINSVESEDVGVYYCQPSHSFPLTFGSGTKLELKR ) = 9.21
